biological target: Prothrombin (Homo sapiens); test: Inhibition against human thrombin
The entries below are paired with their reported pKi.
# pKi: negative log10 of molar concentration; output just the value

| compoundString | experimentalEndpoint | valueReported |
| --- | --- | --- |
| CC(C)C(=O)NCc1nc(Cc2ccccc2)n(CC(=O)N[C@@H](CCCCN)B2O[C@@H]3C[C@@H]4C[C@@H](C4(C)C)[C@]3(C)O2)n1 | pKi | 6.80 |

Request: Output measured pKi for this item: CC1(C)[C@@H]2C[C@H]3OB([C@H](CCCCN)NC(=O)Cn4nc(CC#N)nc4Cc4ccccc4)O[C@@]3(C)[C@H]1C2
Response: 8.46

Request: Please report pKi for the following molecule: CC(C)(C)OC(=O)/C=C/c1nc(Cc2ccccc2)n(CC(=O)N[C@@H](CCCCN)B2O[C@@H]3C[C@@H]4C[C@@H](C4(C)C)[C@]3(C)O2)n1
Response: 6.82

Request: // Input: CC(C)(C)CC(=O)NCc1nc(Cc2ccccc2)n(CC(=O)N[C@@H](CCCCN)B2O[C@@H]3C[C@@H]4C[C@@H](C4(C)C)[C@]3(C)O2)n1 . Output its pKi only.
Response: 7.48

Request: Name the recorded pKi of the item CC1(C)[C@@H]2C[C@H]3OB([C@H](CCCCN)NC(=O)Cn4nc(CO)nc4Cc4ccccc4)O[C@@]3(C)[C@H]1C2 in your answer.
Response: 7.08

Request: State its pKi: CC1(C)[C@@H]2C[C@H]3OB([C@H](CCCCN)NC(=O)Cn4nc(CC#N)nc4Cc4cccc([N+](=O)[O-])c4)O[C@@]3(C)[C@H]1C2
Response: 8.74

---

biological target: Prothrombin (Homo sapiens); assay: Inhibition against human thrombin
experimentalEndpoint: pKi
Entry type: numeric. Quantity: pKi, the -log10 of concentration in molar units.

Consider the worked cases shown below.
| molecule | subjectOfTest | valueReported |
| --- | --- | --- |
| CC1(C)[C@@H]2C[C@H]3OB([C@H](CCCCN)NC(=O)Cn4nnnc4CCc4ccccc4)O[C@@]3(C)[C@H]1C2 | Prothrombin (Homo sapiens) | 7.48 |
| C[S+]([O-])Cc1nc(Cc2ccccc2)n(CC(=O)N[C@@H](CCCCN)B2O[C@@H]3C[C@@H]4C[C@@H](C4(C)C)[C@]3(C)O2)n1 (stereo partly specified) | Prothrombin (Homo sapiens) | 7.33 |
| CC1(C)[C@@H]2C[C@H]3OB([C@H](CCCCN)NC(=O)Cn4nc(-c5cccc(N)c5)nc4Cc4ccccc4)O[C@@]3(C)[C@H]1C2 | Prothrombin (Homo sapiens) | 6.82 |

Request: Return value of pKi for input CC1(C)[C@@H]2C[C@H]3OB([C@H](CCCCN)NC(=O)Cn4ncnc4Cc4ccccc4)O[C@@]3(C)[C@H]1C2 , no commentary.
Response: 7.51

Request: State, in one line, measured pKi of CC1(C)[C@@H]2C[C@H]3OB([C@H](CCCCN)NC(=O)Cn4nc(CC#N)cc4CCc4ccccc4)O[C@@]3(C)[C@H]1C2
Response: 8.34

Request: Please look at this molecule and report its pKi: Cc1nc(Cc2ccccc2)n(CC(=O)N[C@@H](CCCCN)B2O[C@@H]3C[C@@H]4C[C@@H](C4(C)C)[C@]3(C)O2)n1
Response: 8.07

---

molecular target: UniProt:P00734; test: Inhibition against human thrombin
Reported pKi values for a set of compounds
// scale note: pKi = -log10(conc_M); give the bare number

Request: Supply measured pKi of CC1(C)[C@@H]2C[C@H]3OB([C@H](CCCCN)NC(=O)Cn4nc(Cc5nn[nH]n5)nc4Cc4ccccc4)O[C@@]3(C)[C@H]1C2 in your reply.
Response: 6.46

Request: Input CC1(C)[C@@H]2C[C@H]3OB([C@H](CCCCN)NC(=O)Cn4nc(-c5cccc([N+](=O)[O-])c5)nc4Cc4ccccc4)O[C@@]3(C)[C@H]1C2 , output reported pKi.
Response: 7.07

---

biological target: Prothrombin (Homo sapiens, UniProt P00734); assay: Inhibition against human thrombin
Measured Ki values are reported for all entries that follow.
Return type: number; implicit unit nM.

Here is how some compounds turned out for Ki.
| compoundString | subjectOfTest | Ki [nM] |
| --- | --- | --- |
| CC1(C)[C@@H]2C[C@H]3OB([C@H](CCCCN)NC(=O)Cn4nc(COCc5ccccc5)nc4Cc4ccccc4)O[C@@]3(C)[C@H]1C2 | Prothrombin (Homo sapiens, UniProt P00734) | 8.7 |
| CC1(C)[C@@H]2C[C@H]3OB([C@H](CCCCN)NC(=O)Cn4nc(CNC=O)nc4Cc4ccccc4)O[C@@]3(C)[C@H]1C2 | Prothrombin (Homo sapiens, UniProt P00734) | 33 |

Request: Please give measured Ki of the following entry: CCCc1nc(Cc2ccccc2)n(CC(=O)N[C@@H](CCCCN)B2O[C@@H]3C[C@@H]4C[C@@H](C4(C)C)[C@]3(C)O2)n1
Response: 73

---

assay: Compound was tested for inhibition against tissue factor.
experimentalEndpoint: Ki

Take a look at these entries with their results.
| compound | valueReported |
| --- | --- |
| CC1(C)[C@@H]2C[C@H]3OB([C@H](CCCCN)NC(=O)Cn4nc(CNS(=O)(=O)C(F)(F)F)nc4Cc4ccccc4)O[C@@]3(C)[C@H]1C2 | 3.7 µM |
| CC1(C)[C@@H]2C[C@H]3OB([C@H](CCCCN)NC(=O)Cn4nc(CNC=O)nc4Cc4ccccc4)O[C@@]3(C)[C@H]1C2 | 2.7 µM |

Request: State its Ki for this compound: CC1(C)[C@@H]2C[C@H]3OB([C@H](CCCCN)NC(=O)Cn4nc(CS(C)(=O)=O)nc4Cc4ccccc4)O[C@@]3(C)[C@H]1C2
Response: 2.7 µM

Request: Look up and report measured Ki for this entry: CC(C)(C)CC(=O)NCc1nc(Cc2ccccc2)n(CC(=O)N[C@@H](CCCCN)B2O[C@@H]3C[C@@H]4C[C@@H](C4(C)C)[C@]3(C)O2)n1
Response: 1.49 µM

Request: // Input: C[S+]([O-])Cc1nc(Cc2ccccc2)n(CC(=O)N[C@@H](CCCCN)B2O[C@@H]3C[C@@H]4C[C@@H](C4(C)C)[C@]3(C)O2)n1 (stereo partly drawn) . Output its Ki only.
Response: 3.6 µM

Request: Please give the documented Ki of CC(C)(C)OC(=O)CCc1nc(Cc2ccccc2)n(CC(=O)N[C@@H](CCCCN)B2O[C@@H]3C[C@@H]4C[C@@H](C4(C)C)[C@]3(C)O2)n1
Response: 0.67 µM

Request: // fetch Ki given entry CC(C)(C)OC(=O)/C=C/c1nc(Cc2ccccc2)n(CC(=O)N[C@@H](CCCCN)B2O[C@@H]3C[C@@H]4C[C@@H](C4(C)C)[C@]3(C)O2)n1
Response: 2.8 µM

Request: Determine from records and report Ki for CC1(C)[C@@H]2C[C@H]3OB([C@H](CCCCN)NC(=O)Cn4nc(CCC(=O)O)nc4Cc4ccccc4)O[C@@]3(C)[C@H]1C2
Response: > 10 µM

---

Listed compounds paired with reported Ki
biological target: Coagulation factor X (Homo sapiens, UniProt P00742); experiment: Inhibition against human coagulation factor Xa
Sequence (P00742 41-179 limits assumed): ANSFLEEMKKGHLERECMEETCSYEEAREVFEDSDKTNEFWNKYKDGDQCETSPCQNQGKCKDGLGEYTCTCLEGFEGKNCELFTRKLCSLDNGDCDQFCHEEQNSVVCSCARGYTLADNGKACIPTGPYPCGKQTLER
Sequence (P00742 235-488 limits assumed): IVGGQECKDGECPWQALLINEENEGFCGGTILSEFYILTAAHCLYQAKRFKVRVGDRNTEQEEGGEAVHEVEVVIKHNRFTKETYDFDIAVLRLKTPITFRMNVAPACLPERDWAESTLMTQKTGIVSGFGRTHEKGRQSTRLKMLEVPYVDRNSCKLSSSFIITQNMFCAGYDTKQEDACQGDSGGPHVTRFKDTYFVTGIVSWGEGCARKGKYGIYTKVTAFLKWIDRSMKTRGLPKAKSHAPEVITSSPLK

| compoundString | subjectOfTest | valueReported |
| --- | --- | --- |
| CC1(C)[C@@H]2C[C@H]3OB([C@H](CCCCN)NC(=O)Cn4nc(CC#N)cc4CCc4ccccc4)O[C@@]3(C)[C@H]1C2 | Coagulation factor X (Homo sapiens, UniProt P00742) | > 6 µM |
| CCCc1nc(Cc2ccccc2)n(CC(=O)N[C@@H](CCCCN)B2O[C@@H]3C[C@@H]4C[C@@H](C4(C)C)[C@]3(C)O2)n1 | Coagulation factor X (Homo sapiens, UniProt P00742) | > 6 µM |
| CC1(C)[C@@H]2C[C@H]3OB([C@H](CCCCN)NC(=O)Cn4nc(CC#N)nc4Cc4cccc([N+](=O)[O-])c4)O[C@@]3(C)[C@H]1C2 | Coagulation factor X (Homo sapiens, UniProt P00742) | > 6 µM |
| CC1(C)[C@@H]2C[C@H]3OB([C@H](CCCCN)NC(=O)Cn4nc(CNC=O)nc4Cc4ccccc4)O[C@@]3(C)[C@H]1C2 | Coagulation factor X (Homo sapiens, UniProt P00742) | > 6 µM |
| CC1(C)[C@@H]2C[C@H]3OB([C@H](CCCCN)NC(=O)Cn4nc(COCc5ccccc5)nc4Cc4ccccc4)O[C@@]3(C)[C@H]1C2 | Coagulation factor X (Homo sapiens, UniProt P00742) | 1.6 µM |

Here's the next entry for you.
Request: Return value of Ki for input CC1(C)[C@@H]2C[C@H]3OB([C@H](CCCCN)NC(=O)Cn4nc(CO)nc4Cc4ccccc4)O[C@@]3(C)[C@H]1C2 , no commentary.
Response: > 6 µM
